Experiment: Selectivity index, ratio of IC50 for human WI-38 cells to IC50 for human HepG2 cells
Type: toxicity
Conditions: WI-38 cells versus HepG2 cells, read-out: Ratio IC50
Measurement type: selectivity ratio
// return a plain number; no unit text

Record "C[C@@]12CC[C@@H]3[C@@](CC[C@H]4[C@@]3(C)CCC[C@@]4(C)C(=O)OCC[N+](C)(C)CCCCCCCCCCCC[N+](C)(C)CCOC(=O)[C@]3(C)CCC[C@@]4(C)[C@@H]5CC[C@@]6(C)C[C@]5(CC[C@@H]43)CC6=O)(CC1=O)C2.[Br-].[Br-]" , field selectivity ratio: 1.3

* * *

Test: Selectivity index, ratio of IC50 for human WI-38 cells to IC50 for human HeLa cells
Type: toxicity
Conditions: WI-38 cells versus HeLa cells, read-out: Ratio IC50
Measurement type: selectivity ratio
// return a plain number; no unit text

Record "C[C@@]12CC[C@@H]3[C@@](CC[C@H]4[C@@]3(C)CCC[C@@]4(C)C(=O)OCC[N+](C)(C)CCCCCCCCCCCC[N+](C)(C)CCOC(=O)[C@]3(C)CCC[C@@]4(C)[C@@H]5CC[C@@]6(C)C[C@]5(CC[C@@H]43)CC6=O)(CC1=O)C2.[Br-].[Br-]" , field selectivity ratio: 1.1

This collection of values is drawn from ChEMBL document CHEMBL4680351.
